Target: T1, GST-tagged AIM2 (Invitrogen) (UniProt O14862 1-343)
T1 sequence (looked up): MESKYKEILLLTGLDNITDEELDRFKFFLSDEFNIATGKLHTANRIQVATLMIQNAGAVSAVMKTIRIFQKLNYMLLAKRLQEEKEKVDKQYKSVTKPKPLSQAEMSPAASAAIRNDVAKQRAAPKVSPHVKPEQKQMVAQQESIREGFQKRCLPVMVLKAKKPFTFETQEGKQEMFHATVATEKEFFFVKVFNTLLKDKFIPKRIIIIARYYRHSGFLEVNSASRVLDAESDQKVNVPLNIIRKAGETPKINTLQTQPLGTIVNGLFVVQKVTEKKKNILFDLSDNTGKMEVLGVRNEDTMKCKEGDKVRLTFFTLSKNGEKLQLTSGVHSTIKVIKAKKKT
Experiment: BLI
Measure: kon (M⁻¹ s⁻¹)
// note: answer is a bare numeric in M⁻¹ s⁻¹

Data request: Using the record for Recombinant HMGB1(C23S) (natural protein, human, UniProt P09429 1-215, looked up) MGKGDPKKPRGKMSSYAFFVQTSREEHKKKHPDASVNFSEFSKKCSERWKTMSAKEKGKFEDMAKADKARYEREMKTYIPPKGETKKKFKDPNAPKRPPSAFFLFCSEYRPKIKGEHPGLSIGDVAKKLGEMWNNTAADDKQPYEKKAAKLKEKYEKDIAAYRAKGKPDAAKKGVVKAEKSKKKKEEEEDEEDEEDEEEEEDEEDEDEEEDDDDE , report its kon.
Data returned: 25000

Recorded values, source paper PMC5191963.
